Values compiled from paper PMC12203311.

# Tested on: CAKI-1
# assayComment: NCI60 five-dose screen
# Assay type: cell-based
# conditions: Homo sapiens; CAKI-1, renal cancer; read-out: LC50 (the source's name)
observedProperty: CC50 (µM)

>  <molecule>
CCc1cc[nH]c1/C=N/NC(=O)c1[nH]c2ccc(Br)cc2c1-c1ccccc1 [Derivative 3u]

>  <testedSystem>
CAKI-1

>  <qualifier>
=

>  <numericReadout>
45.3

$$$$
>  <molecule>
O=C(N/N=C/c1cc([N+](=O)[O-])c[nH]1)c1[nH]c2ccc(Br)cc2c1-c1ccccc1 [Derivative 3q]

>  <testedSystem>
CAKI-1

>  <qualifier>
>

>  <numericReadout>
100

$$$$
>  <molecule>
O=C(N/N=C/c1cc(Br)c(Br)[nH]1)c1[nH]c2ccc(Br)cc2c1-c1ccccc1 [Derivative 3f]

>  <testedSystem>
CAKI-1

>  <qualifier>
=

>  <numericReadout>
40.9

$$$$
>  <molecule>
O=C(N/N=C/c1cc[nH]c1)c1[nH]c2ccc(Br)cc2c1-c1ccccc1 [Derivative 3b]

>  <testedSystem>
CAKI-1

>  <qualifier>
=

>  <numericReadout>
44.1

$$$$
>  <molecule>
O=C(N/N=C/c1ccc(C(=O)N2CCOCC2)[nH]1)c1[nH]c2ccc(Br)cc2c1-c1ccccc1 [Derivative 3n]

>  <testedSystem>
CAKI-1

>  <qualifier>
>

>  <numericReadout>
100

$$$$
>  <molecule>
CCOC(=O)c1ccc(/C=N/NC(=O)c2[nH]c3ccc(Br)cc3c2-c2ccccc2)[nH]1 [Derivative 3i]

>  <testedSystem>
CAKI-1

>  <qualifier>
=

>  <numericReadout>
74.2

$$$$
>  <molecule>
CCc1ccc(/C=N/NC(=O)c2[nH]c3ccc(Br)cc3c2-c2ccccc2)[nH]1 [Derivative 3s]

>  <testedSystem>
CAKI-1

>  <qualifier>
=

>  <numericReadout>
56.2

$$$$
>  <molecule>
Cn1cccc1/C=N/NC(=O)c1[nH]c2ccc(Br)cc2c1-c1ccccc1 [Derivative 3d]

>  <testedSystem>
CAKI-1

>  <qualifier>
>

>  <numericReadout>
100

$$$$
>  <molecule>
CCOC(=O)c1c[nH]c(/C=N/NC(=O)c2[nH]c3ccc(Br)cc3c2-c2ccccc2)c1 [Derivative 3j]

>  <testedSystem>
CAKI-1

>  <qualifier>
=

>  <numericReadout>
40.5

$$$$
>  <molecule>
CCOC(=O)c1cc(/C=N/NC(=O)c2[nH]c3ccc(Br)cc3c2-c2ccccc2)c[nH]1 [Derivative 3v]

>  <testedSystem>
CAKI-1

>  <qualifier>
=

>  <numericReadout>
40.2

$$$$

====

Record set of GI50 for target or system RXF 393.

>  <smilesRepresentation>
CCOC(=O)c1ccc(/C=N/NC(=O)c2[nH]c3ccc(Br)cc3c2-c2ccccc2)[nH]1

>  <unit>
nM

>  <GI50>
1690

$$$$
>  <smilesRepresentation>
Cn1cccc1/C=N/NC(=O)c1[nH]c2ccc(Br)cc2c1-c1ccccc1

>  <unit>
nM

>  <GI50>
280

$$$$
>  <smilesRepresentation>
O=C(N/N=C/c1cc([N+](=O)[O-])c[nH]1)c1[nH]c2ccc(Br)cc2c1-c1ccccc1

>  <unit>
nM

>  <GI50>
734

$$$$
>  <smilesRepresentation>
O=C(N/N=C/c1ccc(C(=O)N2CCOCC2)[nH]1)c1[nH]c2ccc(Br)cc2c1-c1ccccc1

>  <unit>
nM

>  <GI50>
1060

$$$$
>  <smilesRepresentation>
CCc1c[nH]c(/C=N/NC(=O)c2[nH]c3ccc(Br)cc3c2-c2ccccc2)c1

>  <unit>
nM

>  <GI50>
217

$$$$
>  <smilesRepresentation>
O=C(N/N=C/c1ccc([N+](=O)[O-])[nH]1)c1[nH]c2ccc(Br)cc2c1-c1ccccc1

>  <unit>
nM

>  <GI50>
411

$$$$
>  <smilesRepresentation>
CCc1ccc(/C=N/NC(=O)c2[nH]c3ccc(Br)cc3c2-c2ccccc2)[nH]1

>  <unit>
nM

>  <GI50>
194

$$$$
>  <smilesRepresentation>
O=C(N/N=C/c1[nH]ccc1Cl)c1[nH]c2ccc(Br)cc2c1-c1ccccc1

>  <unit>
nM

>  <GI50>
346

$$$$
>  <smilesRepresentation>
CCOC(=O)c1cc(/C=N/NC(=O)c2[nH]c3ccc(Br)cc3c2-c2ccccc2)c[nH]1

>  <unit>
nM

>  <GI50>
2560

$$$$
>  <smilesRepresentation>
O=C(N/N=C/c1ccc[nH]1)c1[nH]c2ccc(Br)cc2c1-c1ccccc1

>  <unit>
nM

>  <GI50>
339

$$$$
